pKi: −log10 of the molar value.
Ok so here's the combined literature set: pKi for 5-hydroxytryptamine receptor 2A (Homo sapiens, UniProt P28223).
readoutType: pKi

Below are worked cases with known answers.
[
  {
    "compound": "O=S(=O)(c1cncc2ccccc12)N1CCC(CCN2CCN(c3ccccc3)CC2)CC1",
    "readoutType": "pKi",
    "readoutValue": 6.39
  },
  {
    "compound": "Ic1ccc(Nc2nc(N3CCNCC3)nc3ccccc23)cc1",
    "readoutType": "pKi",
    "readoutValue": 6.30
  },
  {
    "compound": "CCCNCc1ccc(Cl)c(-c2ccccc2OC)c1",
    "readoutType": "pKi",
    "readoutValue": 6.17
  },
  {
    "compound": "O=C1Nc2ccccc2C12CCN(CCN1CCC(c3ccc(Cl)cc3)CC1)C2 (stereo not given)",
    "readoutType": "pKi",
    "readoutValue": 6.39
  }
]

P = COc1ccc(CCN(CCCc2ccc(I)cc2)CCc2ccc3c(c2)OCO3)cc1OC
Q = COc1ccc(N2Cc3cc(Cl)c(C)c(Cl)c3C2=O)cc1OCCN1CCC(C)CC1
R = Cc1ncccc1Oc1ccc(NC(=O)N2CCc3cc(C(F)(F)F)ccc32)cn1
S = COc1cccc(N2CCN(CCCOc3cc(C)cc4oc(=O)cc(C)c34)CC2)c1
Problem: Ordering criterion: pKi; begin with the maximum. Response format: the labels, sorted as the prompt asks.
Solution: S, P, Q, R
(S: 6.97, P: 6.54, Q: 6.20, R: 5.60)

====

Ok so here's the combined literature set: pKi for UniProt:P28223.
pKi: −log10 of the molar value.
readoutType: pKi

a = O=c1n(CCCCCCN2CCN(c3cccc(Cl)c3)CC2)c2cccc3c2n1CCC3
b = CC(=O)OC12C=C(C)C(C(C)C1)C1C(=O)N(CCCN3CCN(c4ccccc4)CC3)C(=O)C12 (stereo unspecified)
c = CCC(Oc1cc(Cl)cc(Cl)c1)c1nc(Nc2ccccc2)nc(N2CCN(C)CC2)n1 (stereo unspecified)
d = NCC1c2ccccc2Cc2cc(O)ccc21 (stereo unspecified)
Problem: // sort entries: pKi, high to low Response format: the labels, sorted as the prompt asks.
Solution: a, d, b, c

====

Ok so here's the combined literature set: Ki for 5-hydroxytryptamine receptor 2A (Homo sapiens, UniProt P28223).
readoutType: Ki (nM)

Below are worked cases with known answers.
[
  {
    "molecule": "CCNC(=O)Nc1cc(F)ccc1C(=O)CCCN1CC[C@H]2[C@@H](C1)c1cccc3c1N2CCCS3",
    "Ki [nM]": 11
  },
  {
    "molecule": "COc1ccc(-c2ccc(CNCCc3c[nH]c4ccc(OC)cc34)o2)cc1",
    "Ki [nM]": 35
  },
  {
    "molecule": "c1ccc(C2(c3ccccc3)CCNC2)cc1",
    "Ki [nM]": 4610
  },
  {
    "molecule": "COc1ccc(N2Cc3c(c4cc(F)ccc4n3C)C2=O)cc1OCCN1CCC(C)CC1",
    "Ki [nM]": 158
  },
  {
    "molecule": "Fc1ccc(-c2[nH]c3cc(F)ccc3c2C2CCCNC2)cc1 (stereo unspecified)",
    "Ki [nM]": 0.09
  }
]

P = Cc1[nH]nc(C(=O)N2CCN(CC(=O)c3ccc(F)cc3)CC2)c1Br
Q = CC(=O)N1CCC(C)c2cc(F)cc(CCN3CCN(c4noc5ccccc45)CC3)c21 (stereo unspecified)
Problem: For the pair P and Q , which entry has the numerically smaller recorded Ki? Let me know the label of the one you choose.
Solution: Q
(Q: 0.29 nM, P: 4.6 nM)

a = O=C1NCc2ccc(OCCCCN3CCN(c4cccc5ccccc45)CC3)cc21
b = O=C(Nc1ccc(OCc2ccccn2)nc1)N1CCc2ccc(C(F)(F)F)cc21
Problem: Name the one with the greater Ki value, either a or b as given. Let me know the label of the one you choose.
Solution: b
(b: 251 nM, a: 4.95 nM)

a = CCC(Oc1cc(F)ccc1F)c1nc(N)nc(N2CCN(C)CC2)n1 (stereo unspecified)
b = O=S1(=O)c2cccc3cccc(c23)N1CCCCCCN1CCN(c2cccc(Cl)c2)CC1
Problem: For the pair a and b , which entry has the numerically smaller recorded Ki? Let me know the label of the one you choose.
Solution: b

A = CSc1cc2c(cc1Br)N(C(=O)Nc1cccnc1)CC2
B = Cc1ccccc1[C@H]1C[C@H](N(C)C)Cc2ccccc21
C = CSc1ccc2c(c1Cl)CCN2C(=O)Nc1cccnc1
D = CC1CCN(C(=O)c2ccccc2)c2c(CCN3CCN(c4nsc5ccccc45)CC3)cccc21 (stereo unspecified)
E = c1ccc2c(N3CCN(CCCOc4ccc5c(c4)CNC5)CC3)cccc2c1
Problem: Arrange the 5 molecules by rising Ki, starting with the smallest. Response format: the labels, sorted as the prompt asks.
Solution: D, E, A, B, C

====

pKi: −log10 of the molar value.
Ok so here's the combined literature set: pKi for 5-hydroxytryptamine receptor 2A (Homo sapiens).
readoutType: pKi

Below are worked cases with known answers.
[
  {
    "compound": "CC(=O)N(C)c1ccc(OCCCN2CCC(c3noc4cc(F)ccc34)CC2)cc1",
    "pKi": 7.90
  },
  {
    "compound": "O=c1ccc2c(N3CCCN(CCCCOc4ccn5nccc5c4)CC3)ccc(O)c2[nH]1",
    "pKi": 5.05
  }
]

a = O=C1CC(CN2CCC(C(=O)c3ccc(F)cc3)CC2)Cc2nc(N3CCCC3)sc21 (configuration not stated)
b = CC(=O)Nc1ccc(OCCCN2CCN(c3cccc4ccsc34)CC2)cc1
Problem: Name the one with the greater pKi value, either a or b as given. Let me know the label of the one you choose.
Solution: b

====

Ok so here's the combined literature set: Ki for 5-hydroxytryptamine receptor 2A (Homo sapiens, UniProt P28223).
readoutType: Ki (nM)

a = Nc1cc(F)ccc1C(=O)CCCN1CC[C@@H]2[C@H](C1)c1cccc3c1N2CCO3
b = S=c1n(CCCCCCN2CCN(c3cccc(Cl)c3)CC2)c2cccc3c2n1CCC3
c = Cc1cc2c(cc1C(F)(F)F)N(C(=O)Nc1ccc(OCc3ccccn3)nc1)CC2
d = Nc1nc(SCCN2CCN(Cc3ccccc3Cl)CC2)nc(N)c1Cc1ccccc1Cl
e = O=C(CCc1ccccc1)NC1CCc2ccc(CCN3CCN(c4nsc5ccccc45)CC3)cc21 (stereo unspecified)
Problem: // sort entries: Ki, high to low Response format: the labels, sorted as the prompt asks.
Solution: c, b, d, a, e
(c: 631 nM, b: 258 nM, d: 11.8 nM, a: 2.8 nM, e: 0.95 nM)

1 = CN(C)C[C@H]1C[C@@H]2c3ccccc3Cc3ccccc3[C@H]2O1
2 = O=C(NCCCCN1CCN(c2cccc(Cl)c2Cl)CC1)c1ccc2c(c1)Cc1ccccc1-2
3 = O=C(NCCCCN1CCN(c2ccccc2)CC1)c1ccc2ncccc2c1
4 = COc1ccc(F)cc1OC(C)c1nc(N)nc(N2CCN(C)CC2)n1 (stereo unspecified)
Problem: Ordering criterion: Ki; begin with the maximum. Response format: the labels, sorted as the prompt asks.
Solution: 4, 2, 3, 1

a = COc1ccccc1N1CCN(CCCNC(=O)Nc2ccccc2-c2ccccc2)CC1
b = COc1ccc(Cn2nnc(C(=O)NCCCCCN3CCN(c4cccc(Cl)c4Cl)CC3)c2C)cc1
Problem: Name the one with the greater Ki value, either a or b as given. Let me know the label of the one you choose.
Solution: a
(a: 960 nM, b: 3.2 nM)

a = COc1ccccc1N1CCN(CCCCNC(=O)c2nnn(Cc3ccccc3)c2C)CC1
b = O=C(c1ccc(F)cc1)C1CCN(CCC2CCc3occc3C2=O)CC1 (stereo unspecified)
c = Cc1cc2c(cc1Cl)N(C(=O)Nc1ccc(Oc3cnccc3Cl)nc1)CC2
d = O=C1CCc2ccc(OCCCCN3CCN(c4ccc(O)c5ncccc45)CC3)cc2N1
e = CCOc1cc2c(cc1C(F)(F)F)N(C(=O)Nc1cccnc1)CC2
Problem: Arrange the 5 molecules by rising Ki, starting with the smallest. Response format: the labels, sorted as the prompt asks.
Solution: c, d, b, a, e
(c: 15.8 nM, d: 39 nM, b: 77.6 nM, a: 620 nM, e: 1580 nM)

====

Ok so here's the combined literature set: Ki for 5-hydroxytryptamine receptor 2A (Homo sapiens, UniProt P28223).
readoutType: Ki (nM)

Below are worked cases with known answers.
[
  {
    "compound": "O=C(c1cnn2c1CCCC2)N1CCN(CCc2ccc(F)cc2F)CC1",
    "Ki, nM": 18
  },
  {
    "compound": "O=C1C(c2ccc(Cl)c(Cl)c2)CCN1c1ccc(OC(F)(F)F)c(OCCN2CCCCC2)c1 (stereo unspecified)",
    "Ki, nM": 3160
  }
]

I = O=S(=O)(c1cncc2ccccc12)N1CCC(CCN2CCN(c3ccc(Cl)c(Cl)c3)CC2)CC1
II = c1ccc2c(OCCCCCN3CCCCC3)cccc2c1
III = O=S(=O)(c1ccccc1F)C1(F)CCN(CCc2ccc(F)cc2F)CC1
Problem: Arrange the 3 compounds by rising Ki, starting with the smallest. Response format: the labels, sorted as the prompt asks.
Solution: III, I, II
(III: 0.32 nM, I: 179 nM, II: 3900 nM)
